test system: blood pressure; test: Effect on the blood pressure: hypertensive action, pithed rat; format: in vivo, male Sprague-Dawley rats; settings: Table 1; i.v. administration; amezinium = 1.00
Structures can show the parent of a compound that is named as a salt.
Entries and their R.A. (relative activity), hypertensive action
Give the value as a plain number.

Answered examples (2):
Data request: Consider the molecule shown here: CCOC(=O)N=c1ccn(-c2ccccc2)nc1 [Example 29, hydrochloride] What is its recorded R.A. (relative activity), hypertensive action?
Data returned: 0.23

Data request: Consider the molecule shown here: C=CCOC(=O)N=c1ccn(-c2ccccc2)nc1 What is its recorded R.A. (relative activity), hypertensive action?
Data returned: 0.50

# input for lookup
Data request: Consider the molecule shown here: CC1(C(=O)N=c2ccn(-c3ccccc3)nc2)CCCCC1 What is its recorded R.A. (relative activity), hypertensive action?
Data returned: 0.50

---

tested on: reserpine-induced hypothermia; test: Antidepressive action: reserpine antagonism, inhibition of reserpine-induced hypothermia of the mouse; format: in vivo, male Swiss mice; conditions: Mus musculus; Table 1; oral administration 60 min before reserpine; dose based on the base; read-out: ED 50% (dose which inhibits the reserpine-induced hypothermia of the mouse by 50%)
MEASURED PROPERTY: ED50 (mg/kg)
Field format: number, assumed mg/kg, no unit text.

Answered examples (2):
Data request: Consider the compound shown here: O=C(N=c1ccn(-c2ccccc2)nc1)OCc1ccccc1 What is its recorded ED50?
Data returned: 0.71

Data request: Consider the compound shown here: CC(C)NC(=O)N=c1ccn(-c2ccccc2)nc1 What is its recorded ED50?
Data returned: 0.7

# input for lookup
Data request: Consider the compound shown here: CCSC(=O)N=c1ccn(-c2ccccc2)nc1 What is its recorded ED50?
Data returned: 2
